TARGET UNDER TEST: Voltage-dependent L-type calcium channel subunit alpha-1C (Mus musculus)
ASSAY TEXT: Inhibition of Cav1.2 calcium current measured using whole cell patch clamp in mouse ventricular myocytes
Format: functional, cell-based, Heart, Ventricular myocyte
Set-up: ca sol conc 2 mM, temp room

{"STRUCTURE AS SMILES": "COc1ccc(CCN(C)CCCOc2ccc(S(=O)(=O)c3c(C(C)C)c4ccccc4n3C)cc2)cc1OC", "TARGET UNDER TEST": "Voltage-dependent L-type calcium channel subunit alpha-1C (Mus musculus)", "IC50 [nM]": 33}

* * *

TARGET UNDER TEST: Voltage-dependent L-type calcium channel subunit alpha-1C (Cavia porcellus, UniProt O35505)
Sequence (O35505 whole entry): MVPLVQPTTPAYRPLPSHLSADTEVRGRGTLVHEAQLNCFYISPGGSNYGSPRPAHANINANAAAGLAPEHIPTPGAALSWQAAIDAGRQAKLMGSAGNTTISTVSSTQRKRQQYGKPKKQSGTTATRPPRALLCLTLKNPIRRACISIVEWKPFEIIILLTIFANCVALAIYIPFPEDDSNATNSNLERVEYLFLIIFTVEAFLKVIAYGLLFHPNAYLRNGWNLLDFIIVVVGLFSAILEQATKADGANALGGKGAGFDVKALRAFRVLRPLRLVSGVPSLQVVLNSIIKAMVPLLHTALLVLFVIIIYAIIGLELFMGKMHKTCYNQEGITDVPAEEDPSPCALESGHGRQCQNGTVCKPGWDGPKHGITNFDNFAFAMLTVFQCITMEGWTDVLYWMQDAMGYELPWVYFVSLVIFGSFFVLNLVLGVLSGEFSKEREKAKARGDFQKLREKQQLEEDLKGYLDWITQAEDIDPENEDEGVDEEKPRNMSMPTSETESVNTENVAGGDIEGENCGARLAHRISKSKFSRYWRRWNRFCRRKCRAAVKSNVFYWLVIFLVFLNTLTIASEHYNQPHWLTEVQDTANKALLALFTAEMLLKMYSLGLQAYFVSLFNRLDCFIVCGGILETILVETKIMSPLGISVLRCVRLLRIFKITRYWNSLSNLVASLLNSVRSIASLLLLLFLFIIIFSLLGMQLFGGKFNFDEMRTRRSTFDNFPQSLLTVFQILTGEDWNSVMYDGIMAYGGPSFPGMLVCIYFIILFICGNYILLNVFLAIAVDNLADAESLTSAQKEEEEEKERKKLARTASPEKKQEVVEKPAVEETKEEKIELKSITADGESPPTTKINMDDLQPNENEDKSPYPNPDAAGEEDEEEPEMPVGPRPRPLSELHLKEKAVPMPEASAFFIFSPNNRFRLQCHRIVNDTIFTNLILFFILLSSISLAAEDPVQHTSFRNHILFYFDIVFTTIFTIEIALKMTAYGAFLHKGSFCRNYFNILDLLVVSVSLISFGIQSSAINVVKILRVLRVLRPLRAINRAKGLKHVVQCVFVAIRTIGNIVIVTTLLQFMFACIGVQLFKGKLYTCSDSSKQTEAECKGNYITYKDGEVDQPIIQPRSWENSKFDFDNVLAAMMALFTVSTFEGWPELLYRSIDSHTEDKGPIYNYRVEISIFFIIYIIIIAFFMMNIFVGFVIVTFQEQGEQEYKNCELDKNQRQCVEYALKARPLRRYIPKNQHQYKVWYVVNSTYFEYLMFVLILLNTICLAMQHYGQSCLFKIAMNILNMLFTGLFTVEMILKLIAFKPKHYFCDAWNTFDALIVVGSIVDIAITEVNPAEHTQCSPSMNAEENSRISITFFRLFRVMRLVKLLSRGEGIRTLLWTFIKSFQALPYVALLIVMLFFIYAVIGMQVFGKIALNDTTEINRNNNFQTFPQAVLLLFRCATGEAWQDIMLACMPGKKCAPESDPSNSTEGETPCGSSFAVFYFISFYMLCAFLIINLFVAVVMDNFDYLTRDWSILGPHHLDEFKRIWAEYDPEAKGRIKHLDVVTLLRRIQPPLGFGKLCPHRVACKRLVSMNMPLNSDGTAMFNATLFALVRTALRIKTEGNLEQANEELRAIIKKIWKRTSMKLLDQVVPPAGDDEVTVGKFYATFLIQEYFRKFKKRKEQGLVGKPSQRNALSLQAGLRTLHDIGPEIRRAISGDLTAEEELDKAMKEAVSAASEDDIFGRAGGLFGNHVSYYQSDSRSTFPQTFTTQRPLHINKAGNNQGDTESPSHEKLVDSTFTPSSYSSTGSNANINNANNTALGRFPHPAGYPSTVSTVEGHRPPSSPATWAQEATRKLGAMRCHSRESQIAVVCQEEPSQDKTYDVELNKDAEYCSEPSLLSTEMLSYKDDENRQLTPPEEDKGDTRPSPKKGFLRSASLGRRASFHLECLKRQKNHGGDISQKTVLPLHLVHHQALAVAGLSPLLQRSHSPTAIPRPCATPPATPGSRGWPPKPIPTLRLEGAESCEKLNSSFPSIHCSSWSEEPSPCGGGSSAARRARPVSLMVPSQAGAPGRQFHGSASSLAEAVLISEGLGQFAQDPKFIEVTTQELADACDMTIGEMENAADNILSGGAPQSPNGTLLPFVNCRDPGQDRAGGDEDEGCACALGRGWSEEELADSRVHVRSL
ASSAY TEXT: Inhibition of Cav1.2 calcium current measured using whole cell patch clamp in guinea pig ventricular myocytes
Assay type: functional, cell-based, Heart, Ventricular myocyte
Parameters: ca sol conc 1 mM, temp 35 C
MEASUREMENT TYPE: IC50 (µM)

{"STRUCTURE AS SMILES": "CN1CCN(c2ncc(-c3cc(Cl)cc(Cl)c3Cl)c(N)n2)CC1", "MEASUREMENT TYPE": "IC50", "UNIT SPEC": "µM", "RECORDED MEASUREMENT": 6.02}

* * *

TARGET UNDER TEST: Voltage-dependent L-type calcium channel subunit alpha-1C (Oryctolagus cuniculus)
Sequence (P15381 whole entry): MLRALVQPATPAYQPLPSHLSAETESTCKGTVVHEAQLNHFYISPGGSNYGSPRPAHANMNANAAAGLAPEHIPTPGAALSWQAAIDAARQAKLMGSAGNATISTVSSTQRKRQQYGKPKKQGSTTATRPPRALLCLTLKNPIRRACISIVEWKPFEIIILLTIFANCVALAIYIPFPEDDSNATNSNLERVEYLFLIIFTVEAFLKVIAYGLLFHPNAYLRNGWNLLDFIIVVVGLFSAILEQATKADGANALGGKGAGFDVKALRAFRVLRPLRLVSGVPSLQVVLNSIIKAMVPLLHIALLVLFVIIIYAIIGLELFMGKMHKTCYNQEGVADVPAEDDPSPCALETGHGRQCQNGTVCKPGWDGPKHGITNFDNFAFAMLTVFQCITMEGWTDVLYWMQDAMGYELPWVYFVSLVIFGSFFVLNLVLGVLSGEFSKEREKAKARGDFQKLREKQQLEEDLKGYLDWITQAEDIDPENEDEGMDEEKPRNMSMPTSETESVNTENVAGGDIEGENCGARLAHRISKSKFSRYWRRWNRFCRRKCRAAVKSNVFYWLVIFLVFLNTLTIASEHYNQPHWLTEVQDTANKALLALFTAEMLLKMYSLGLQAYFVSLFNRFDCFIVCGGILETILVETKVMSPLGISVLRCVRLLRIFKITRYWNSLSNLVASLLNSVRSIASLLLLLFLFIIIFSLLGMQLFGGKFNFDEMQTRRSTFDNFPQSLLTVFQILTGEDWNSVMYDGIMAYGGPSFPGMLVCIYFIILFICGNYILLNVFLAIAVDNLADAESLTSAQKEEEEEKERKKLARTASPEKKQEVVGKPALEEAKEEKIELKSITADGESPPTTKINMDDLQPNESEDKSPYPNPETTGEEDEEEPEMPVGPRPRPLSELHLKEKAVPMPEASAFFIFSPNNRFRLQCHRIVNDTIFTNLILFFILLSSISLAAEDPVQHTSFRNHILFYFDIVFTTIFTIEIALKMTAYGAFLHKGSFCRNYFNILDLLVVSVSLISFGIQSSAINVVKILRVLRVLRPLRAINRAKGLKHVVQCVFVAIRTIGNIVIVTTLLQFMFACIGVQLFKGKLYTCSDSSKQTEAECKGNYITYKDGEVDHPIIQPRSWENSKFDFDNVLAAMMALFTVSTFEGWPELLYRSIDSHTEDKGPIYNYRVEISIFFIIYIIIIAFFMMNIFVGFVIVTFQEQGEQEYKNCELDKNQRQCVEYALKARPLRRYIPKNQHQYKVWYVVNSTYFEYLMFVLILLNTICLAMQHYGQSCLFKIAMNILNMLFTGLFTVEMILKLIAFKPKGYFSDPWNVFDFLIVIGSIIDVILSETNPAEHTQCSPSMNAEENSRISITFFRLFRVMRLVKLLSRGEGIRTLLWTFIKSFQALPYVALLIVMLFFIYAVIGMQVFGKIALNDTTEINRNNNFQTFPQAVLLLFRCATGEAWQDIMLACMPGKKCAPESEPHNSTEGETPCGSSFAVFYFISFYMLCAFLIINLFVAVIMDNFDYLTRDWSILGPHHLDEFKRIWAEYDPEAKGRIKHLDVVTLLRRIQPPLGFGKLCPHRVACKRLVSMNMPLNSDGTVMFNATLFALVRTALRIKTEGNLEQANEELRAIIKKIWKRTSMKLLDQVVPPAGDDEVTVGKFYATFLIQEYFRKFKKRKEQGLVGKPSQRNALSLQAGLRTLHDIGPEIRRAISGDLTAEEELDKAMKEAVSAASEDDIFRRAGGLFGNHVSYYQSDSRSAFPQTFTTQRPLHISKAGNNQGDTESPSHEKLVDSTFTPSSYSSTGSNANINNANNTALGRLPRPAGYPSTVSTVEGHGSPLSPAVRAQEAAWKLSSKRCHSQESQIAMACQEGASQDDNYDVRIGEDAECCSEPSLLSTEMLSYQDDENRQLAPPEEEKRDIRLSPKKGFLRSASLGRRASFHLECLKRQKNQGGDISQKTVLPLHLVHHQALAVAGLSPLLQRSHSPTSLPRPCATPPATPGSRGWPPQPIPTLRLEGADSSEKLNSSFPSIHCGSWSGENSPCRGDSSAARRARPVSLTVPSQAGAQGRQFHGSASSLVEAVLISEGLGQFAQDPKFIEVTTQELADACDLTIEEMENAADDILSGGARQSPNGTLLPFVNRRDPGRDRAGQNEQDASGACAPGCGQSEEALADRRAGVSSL
ASSAY TEXT: Inhibition of Cav1.2 calcium current measured using whole cell patch clamp in rabbit ventricular myocytes
Format: functional, cell-based, Heart, Ventricular myocyte
Set-up: ca sol conc 1 - BaCl2 mM, temp 37 C

{"STRUCTURE AS SMILES": "CC(C)[C@@H]1CC[C@@H](C)C[C@H]1O", "UNIT SPEC": "µM", "IC50": 74.6}

* * *

TARGET UNDER TEST: Voltage-dependent L-type calcium channel subunit alpha-1C (Rattus norvegicus, UniProt P22002)
ASSAY TEXT: Inhibition of Cav1.2 calcium current measured using FLIPR in rat aortic A7r5 cells
Assay type: functional, cell-based
pIC50: −log10 of the molar value.
MEASUREMENT TYPE: pIC50

{"STRUCTURE AS SMILES": "COc1cccc(CCN2CCC(CC(=O)N[C@@H](c3ccc(F)cc3)C(C)C)CC2)c1", "MEASUREMENT TYPE": "pIC50", "RECORDED MEASUREMENT": 5.15}

* * *

TARGET UNDER TEST: Voltage-dependent L-type calcium channel subunit alpha-1C (Cavia porcellus)
ASSAY TEXT: Inhibition of Cav1.2 calcium current measured using whole cell patch clamp in guinea pig ventricular myocytes
Assay type: functional, cell-based, Heart, Ventricular myocyte
Parameters: ca sol conc 5 mM, temp 20-22 C
pIC50: −log10 of the molar value.
Listed next: entries and their corresponding pIC50.

{"COMPOUND": "CC1=C(C(=O)OC(C)C)[C@H](c2cccc3nonc23)C([N+](=O)[O-])=C(C)N1 (mixture of isomers)", "pIC50": 7.10}
{"COMPOUND": "CC1=C(C(=O)OC(C)C)[C@@H](c2cccc3nonc23)C([N+](=O)[O-])=C(C)N1", "pIC50": 6.70}

* * *

TARGET UNDER TEST: Voltage-dependent L-type calcium channel subunit alpha-1C (Homo sapiens)
ASSAY TEXT: Inhibition of Cav1.2 calcium current measured using whole cell patch clamp in human atrial myocytes
Format: functional, cell-based, Heart, Cardiac Muscle Cell
Set-up: ca sol conc 1.8 mM, temp 25 C
pIC50: −log10 of the molar value.

{"MOLECULE": "CNC1(c2ccccc2Cl)CCCCC1=O (stereo unspecified)", "TARGET UNDER TEST": "Voltage-dependent L-type calcium channel subunit alpha-1C (Homo sapiens)", "pIC50": 5.74}
